This listing pairs molecules with measured growth.
test system: M14 melanoma; assay: NCI-60 one-dose screen, 48 h (100 = growth as untreated, 0 = no growth, -100 = all killed); conditions: 10 µM unless noted
About 83,000 compounds went through this panel and 20% of them were active in at least one assay; those are over-represented in the sample as a whole.
Report only the number, with the unit % understood.

Use these answered entries as a reference point.
CC[C@H](C)[C@H](NC(=O)C12C3C4C1C1C2C3C41NC(C)=O)C(=O)N(C)[C@H](C[C@@H](OC(C)=O)c1nc(C(=O)N[C@@H](Cc2ccccc2)C[C@H](C)C(=O)OC)cs1)C(C)C (some centres not stated); 1.02
CCCCN1CCCC[C@@H]1C(=O)N[C@H](C(=O)N(C)[C@H](C[C@@H](OC(C)=O)c1nc(C(=O)NC2CCC(C(=O)OC)CC2)cs1)C(C)C)C(C)C (some centres not stated); -2.18
COC(=O)[C@@H](C)C[C@H](Cc1ccccc1)NC(=O)c1csc([C@@H](C[C@H](C(C)C)N(C)C(=O)[C@@H](NC(=O)[C@H]2CCCCN2C)c2ccc(F)cc2)OC(C)=O)n1; -6.9
CCCCCN(CCCCC)CC(O)c1cc(Cl)ccc1OC (configuration not stated); 23.1

Record c1ccc(Nc2nc(-c3ccccc3)c[se]2)cc1 . Reported growth: 87.3

Record CC(=O)OC1CCC2(C)C(CCC3C2CC(=O)C2(C)C3CC(Sc3ccc(N(CCCl)CCCl)cc3)C2C(C)=O)C1 (configuration not stated) . Reported growth: 81

Record N#C[Se]Cc1cc(-c2ccccc2)n(-c2ccc(S(N)(=O)=O)cc2)n1 . Reported growth: -62.2
